Tested on: IGROV1 ovarian
Assay: NCI tumour cell line growth inhibition, 48 h; in the data active = GI50 below about 0.43 µM; inactive = the rest
Allowed answers: Yes = active, No = inactive

Solved entries:
c1ccc(Nc2nc(-c3ccccn3)cs2)nc1 = No
CC1SC2(CCC(c3ccccc3)CC2)N(NC(=O)c2[nH]c3ccc(F)cc3c2-c2ccccc2)C1=O (stereo not given) = No
C/C(=N\NC(=S)N1CCN(C2CCCCCC2)CC1)c1ccccn1 = Yes
C[N+](C)(CCCCCC[N+](C)(C)CCCN1C(=O)c2cc3ccccc3cc2C1=O)CCCN1C(=O)c2cc3ccccc3cc2C1=O = No

Next:
Name the outcome recorded for CO[C@]12C=C/C(=C(/C(=O)OCc3cccnc3)C(=O)CCCCCCCC[C@@]3(OC)C=C/C(=C(/C(=O)OCc4cccnc4)C(=O)CCCCCCCC1)O3)O2 in the assay.
No

###

// U251 CNS GI50 records

CCCCCCCCCCCCCCCC(=O)N[C@H](/C=C/[C@H](O)CCCCCCCCCCCCC)CO = > 100 µM
COc1ccc(-c2nn(-c3cccc(NC(=O)Nc4ccccc4)c3)cc2-c2ccncc2)cc1Cl = 1.99 µM
O=C1C(Nc2ccc(Br)cc2)=C(I)C(=O)c2ncccc21 = 1.32 µM

Okay, next one:
Provide the documented GI50 with U251 CNS as the system for CN(C)CCC=C1c2ccccc2C(C)(C)c2ccccc21
12.2 µM

###

Test system: K-562 leukemia
Assay: NCI tumour cell line growth inhibition, 48 h
TGI reference

C/C(=N\NS(=O)(=O)c1ccc(C)cc1)c1cc2ccccc2n1C = > 100 µM

Which measured TGI value corresponds to O=C(O)C1C2C=CC(C2)C1C(=O)O (stereo unspecified) ?
> 100 µM

Which measured TGI value corresponds to Cc1ccc(C2SCC(=O)N2c2ccc(-c3ccc(-n4c(-c5ccccc5)nc5ccccc5c4=O)cc3)cc2)cc1 (stereo unspecified) ?
> 100 µM

Which measured TGI value corresponds to CCCCCCCCCCCCCCCC(=O)N[C@H](/C=C/[C@H](O)CCCCCCCCCCCCC)CO ?
> 100 µM

Which measured TGI value corresponds to CC(C)(C)OC(=O)NCCC(=O)NC1(c2cc3ccccc3s2)CCCCC1 ?
28.9 µM

Which measured TGI value corresponds to NCCCCCCCCCCCn1c2c(c3ccccc3c1=O)C(=O)c1ccccc1-2 ?
4.58 µM

Which measured TGI value corresponds to CC1(C)OCC(C2OC(OC(=O)c3ccc([N+](=O)[O-])cc3)C3OC(C)(C)OC23)O1 (stereo unspecified) ?
> 100 µM

Which measured TGI value corresponds to CN(C)c1ccc(-c2c(C#N)c(O)n(NS(=O)(=O)c3ccccc3)c(=O)c2C#N)cc1 ?
> 100 µM

###

System: HS 578T breast
Assay: NCI tumour cell line growth inhibition, 48 h
TGI reference

CCOC(=O)c1ccc2c(c1)nc(/C=C/c1ccc(Cl)cc1)n2-c1cc(C(C)(C)C)[nH]n1 = 61.8 µM
CCOC(=O)NC(C(=O)OCC)(N1CCN(c2cc3c(cc2F)c(=O)c(C(=O)O)cn3CC)CC1)C(F)(F)F (centres undefined) = > 100 µM
C/C(=N\NC(=S)N1CCN(C2CCCCCC2)CC1)c1ccccn1 = 4.63 µM
CCCCc1ccc(-n2sc3ncc([N+](=O)[O-])cc3c2=O)cc1 = 30.8 µM
Cc1cc(=O)[nH]c2cc(NC(=O)C(CCCN=C(N)N)NC(=O)OCc3ccccc3)ccc12 (centres undefined) = > 100 µM
Clc1cc2c(nn1)Nc1ccccc1S2 = > 100 µM
CC(=O)c1ccc(Nc2nc(Nc3ccc(F)cc3)nc(Nc3ccc(F)cc3)n2)cc1 = 20.2 µM
O=c1c2c(c3ccccc3n1-c1ccccc1)NC(=S)NC2c1ccc(Cl)cc1 (centres undefined) = > 100 µM
CCOP(=O)(Nc1ccccc1P(=O)(OCC)OCC)OCC = > 100 µM
Cc1ccc(N=C2S/C(=C3/CCC=C3N3CCOCC3)N(c3ccc(Cl)cc3)C2=Nc2ccc(C)cc2)cc1 = > 100 µM

Which measured TGI value corresponds to Clc1nc(Cl)c2c3c(sc2n1)CCCC3 ?
> 100 µM

Which measured TGI value corresponds to CN1C[C@H]2[C@@H](C1=O)[C@H](c1ccccc1)ON2C ?
> 100 µM

Which measured TGI value corresponds to COc1ccc(-c2nn(-c3cccc(NC(=O)Nc4ccccc4)c3)cc2-c2ccncc2)cc1Cl ?
7.94 µM

Which measured TGI value corresponds to CCOc1ccc2c(C)cc(=O)oc2c1 ?
> 100 µM

Which measured TGI value corresponds to NC(=O)C(=CNC(=S)Nc1ccc(Cl)c(Cl)c1)C(N)=O ?
> 88.9 µM

Which measured TGI value corresponds to N#Cc1ccsc1NC(=O)COC(=O)c1cccc(S(=O)(=O)N2CCc3ccccc32)c1 ?
> 100 µM

Which measured TGI value corresponds to O=C1C(=O)c2ccccc2C(O)=C1CCCc1ccc(C2CCCC2)cc1 ?
85.1 µM

Which measured TGI value corresponds to C[N+](C)(CCCCCC[N+](C)(C)CCCN1C(=O)c2cc3ccccc3cc2C1=O)CCCN1C(=O)c2cc3ccccc3cc2C1=O ?
> 37.5 µM

Which measured TGI value corresponds to CC(=O)C=NCC(=O)O ?
> 100 µM

Which measured TGI value corresponds to Cc1ccc(Nc2[nH]c(=O)[nH]c(=O)c2C)cc1Cl ?
> 100 µM

Which measured TGI value corresponds to CN1C(=O)C(C(N)=O)C2CC1(C)Oc1ccccc12 (centres undefined) ?
> 100 µM

Which measured TGI value corresponds to c1ccc(Nc2nc(-c3ccccn3)cs2)nc1 ?
> 100 µM

Which measured TGI value corresponds to O=C(OC[C@H]1C[C@H]2C(=O)CCC[C@H]2O1)c1ccccc1 ?
> 100 µM

Which measured TGI value corresponds to CC1SC2(CCC(c3ccccc3)CC2)N(NC(=O)c2[nH]c3ccc(F)cc3c2-c2ccccc2)C1=O (centres undefined) ?
68.3 µM

Which measured TGI value corresponds to COC1=CC(=O)c2c(cc(COP(=O)(OCC3OC(n4cc(F)c(=O)[nH]c4=O)CC3O)N(C)CCCCCl)n2C)C1=O (centres undefined) ?
2.64 µM

Which measured TGI value corresponds to O=C(Nc1nc(C23CC4CC(CC(C4)C2)C3)cs1)c1cc2cc(Cl)ccc2oc1=O ?
> 100 µM

###

System: HCT-116 colon
Experiment: NCI tumour cell line growth inhibition, 48 h
observable: TGI (µM)
Kindly answer with a numeric value in µM, unit omitted.

Consider the following illustrative entries.
O=C(N/C(=C\c1ccc(/C=C(\NC(=O)c2ccccc2)c2nc3cc(Cl)ccc3[nH]2)cc1)c1nc2cc(Cl)ccc2[nH]1)c1ccccc1 = 66.2
CC1CCCCN1CC(=O)c1ccc2c(c1)Sc1ccccc1O2 (stereo not given) = 30.7
Cc1ccc(/C=C/C(=N/N=C(N)N)c2ccccc2)cc1 = 12.2

Which measured TGI value corresponds to Cc1cc2c(C(C)C)c(O)c(O)c(C=NCCO)c2c(O)c1-c1c(C)cc2c(C(C)C)c(O)c(O)c(C=NCCO)c2c1O ?
3.03

###

Tested on: SW-620 colon
Assay: NCI tumour cell line growth inhibition, 48 h
observable: TGI

Cc1cc(C)c2c(c1)C1=NCCN1C2(O)c1ccc(Cl)cc1 (stereo not drawn) = 29.2 µM
COc1cc2c(cc1OC)CN1CCCc3cc(OC)c(OC)cc3C1C2 (stereo not drawn) = > 100 µM
CCC(CCC(C)C1CCC2C3CC=C4CC(OC5OC(CO)C(O)C(O)C5O)CCC4(C)C3CCC12C)C(C)C (stereo not drawn) = > 100 µM
Cc1cc(S(=O)(=O)NC2=NC(c3ccccc3)c3cc(Cl)ccc3N2)c(S)cc1Cl (stereo not drawn) = > 100 µM
COc1ccc2c(Cc3c4ccccc4cc4ccccc34)cncc2c1O = > 100 µM
CSCC[C@H](NC(=O)[C@H](CC(C)C)NC(=O)[C@@H](Cc1ccccc1)NC(=O)CNC(=O)[C@@H](NC(=O)[C@H](C)NC(=O)[C@H](Cc1c[nH]c2ccccc12)NC(=O)[C@H](CCC(N)=O)NC(=O)[C@H](N)CC(N)=O)C(C)C)C(N)=O = > 12.5 µM
COc1ccc(-c2nnc3n(Cc4ccccc4)c4ccccc4n3c2=O)cc1 = > 100 µM
COc1cc(CNC2=NCCC2)cc(OC)c1OC = > 100 µM

Which measured TGI value corresponds to COC1=CC(=O)c2c(cc(COP(=O)(OCC3OC(n4cc(F)c(=O)[nH]c4=O)CC3O)N(C)CCCCCl)n2C)C1=O (stereo not drawn) ?
> 59.9 µM

Which measured TGI value corresponds to c1ccc(N=c2nc(N3CCOCC3)ss2)cc1 ?
21.8 µM

Which measured TGI value corresponds to O=C1CCCC(=O)N1n1c(Cc2ccccc2)n[nH]c1=O ?
> 100 µM

Which measured TGI value corresponds to CC(C)=CCC1=C(OCC(=O)O)C(=O)c2ccccc2C1=O ?
76.6 µM

Which measured TGI value corresponds to COC(=O)/C=C(/C(=O)OC)c1cc2ccc3c([nH]c4ccccc43)c(C)c-2c1 ?
27.1 µM

Which measured TGI value corresponds to COC(=O)C[CH2][Ge]([CH3])([CH3])[S]c1ccccc1 ?
31.4 µM

Which measured TGI value corresponds to COC(=O)C(C(=O)C(=O)Nc1ccccc1C#N)c1nc2ccc([N+](=O)[O-])cc2[nH]c1=O (stereo not drawn) ?
> 100 µM

Data provenance is PubChem BioAssay (NCI).
